Biological target: T1, cynomolgus MCSP D3 (cynomolgus, UniProt Q6UVK1 1582-2224 (human entry))
T1 construct: also called cynomolgus homologue; not shown: C-terminal tag
T1 chain: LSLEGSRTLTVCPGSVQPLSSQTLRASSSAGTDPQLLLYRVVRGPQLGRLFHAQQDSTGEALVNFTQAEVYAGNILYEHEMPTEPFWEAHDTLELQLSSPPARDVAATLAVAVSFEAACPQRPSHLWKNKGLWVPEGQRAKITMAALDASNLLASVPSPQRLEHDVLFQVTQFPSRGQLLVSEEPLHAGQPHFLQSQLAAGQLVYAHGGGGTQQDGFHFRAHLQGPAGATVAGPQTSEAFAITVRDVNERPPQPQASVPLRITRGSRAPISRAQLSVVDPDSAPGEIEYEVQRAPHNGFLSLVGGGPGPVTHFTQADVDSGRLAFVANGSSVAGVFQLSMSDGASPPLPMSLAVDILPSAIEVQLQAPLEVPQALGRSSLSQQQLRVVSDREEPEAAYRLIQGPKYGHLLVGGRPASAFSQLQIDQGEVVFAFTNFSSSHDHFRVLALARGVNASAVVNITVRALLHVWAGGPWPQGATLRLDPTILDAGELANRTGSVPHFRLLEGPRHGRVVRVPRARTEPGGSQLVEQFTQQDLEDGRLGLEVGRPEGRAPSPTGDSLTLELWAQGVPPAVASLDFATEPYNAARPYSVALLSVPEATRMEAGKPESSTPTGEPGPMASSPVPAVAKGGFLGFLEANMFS
Experiment: SPR (ProteOn XPR36), IgG KD against parental M4-3/ML2
Please respond with reported Comparative binding affinity - Fold increase over parent for every item in the list.
Please answer in the form of a number followed by its unit of measurement.

Comparative binding affinity - Fold increase over parent in this record for M4-3/ML2 (E10/G3) (IgG) (antibody, V domains shown, Human IgG1 format) VH: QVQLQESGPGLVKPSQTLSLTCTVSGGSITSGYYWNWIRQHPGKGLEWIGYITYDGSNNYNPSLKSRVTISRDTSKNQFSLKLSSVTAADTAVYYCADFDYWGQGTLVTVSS VL: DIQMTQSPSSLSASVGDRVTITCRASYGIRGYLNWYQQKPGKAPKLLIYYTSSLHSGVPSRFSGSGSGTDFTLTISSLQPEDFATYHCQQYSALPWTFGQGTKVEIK : 2.2 fold

Recorded result, M4-3(A7)/ML2(C5) (IgG) (antibody, V domains shown, Human IgG1 format) VH: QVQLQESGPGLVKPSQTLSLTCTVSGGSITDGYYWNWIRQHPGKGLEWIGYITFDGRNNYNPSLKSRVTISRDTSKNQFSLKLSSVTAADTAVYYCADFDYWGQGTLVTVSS VL: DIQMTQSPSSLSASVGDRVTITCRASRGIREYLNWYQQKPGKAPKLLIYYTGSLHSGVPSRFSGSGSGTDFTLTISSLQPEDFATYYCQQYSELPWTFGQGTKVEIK , Comparative binding affinity - Fold increase over parent: 10 fold

Briefly, Comparative binding affinity - Fold increase over parent measured for M4-3(A7)/ML2(G3) (IgG) (antibody, V domains shown, Human IgG1 format) VH: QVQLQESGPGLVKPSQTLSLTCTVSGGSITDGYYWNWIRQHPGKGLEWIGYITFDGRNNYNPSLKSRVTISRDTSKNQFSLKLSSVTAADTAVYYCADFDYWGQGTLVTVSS VL: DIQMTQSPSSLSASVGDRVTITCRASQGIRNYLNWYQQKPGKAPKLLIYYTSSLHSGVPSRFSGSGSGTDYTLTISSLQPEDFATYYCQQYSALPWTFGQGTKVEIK : 10 fold
